# tested_system: T1, Human soluble IL-6R (human, UniProt P08887 20-358)
# T1 construct: Soluble recombinant form; biotinylated in some assays; also called hIL-6R; human IL-6R
# T1 sequence (looked up): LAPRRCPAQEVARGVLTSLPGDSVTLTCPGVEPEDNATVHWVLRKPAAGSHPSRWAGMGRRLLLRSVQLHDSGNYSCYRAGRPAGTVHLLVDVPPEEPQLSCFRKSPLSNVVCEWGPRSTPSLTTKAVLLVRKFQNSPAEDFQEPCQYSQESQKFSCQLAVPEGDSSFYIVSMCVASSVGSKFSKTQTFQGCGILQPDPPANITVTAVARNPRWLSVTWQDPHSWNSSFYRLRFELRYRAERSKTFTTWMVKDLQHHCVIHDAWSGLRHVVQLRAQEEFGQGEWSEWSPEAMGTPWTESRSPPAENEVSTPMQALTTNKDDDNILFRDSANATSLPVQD
# test_summary: Biacore, binding to IL-6R
measurement_label: Kd (nM)
// note: answer is a bare numeric in nM

Inquiry: Indicate the recorded Kd value for this binder: IL6R72 (VHH) VHH: EVQLVESGGGLVQPGGSLRLSCAASGFTFSDYDIGWFRQAPGKGREGVSGISSSDGNTYYADSVKGRFTISSDNAKNTVYLQMNSLRPEDTAVYYCAAEPPDSSWYLDGSPEFFKYWGQGTLVTVSS
Reply text: 0.3

Inquiry: Indicate the recorded Kd value for this binder: IL6R84 (VHH) VHH: EVQLVESGGGLVQPGGSLRLSCAASGFTFDDYGMSWVRQAPGKGLEWVSAISWNGNNTYYTESMKGRFTISRDNAKNTLYLQMNSLRPEDTAVYYCVKGSTAIVGVPPTYPDEYDYWGQGTLVTVSS
Reply text: 5.4

Inquiry: Indicate the recorded Kd value for this binder: IL6R62 (VHH) VHH: EVQLVESGGGLVQPGGSLRLSCAASGSIFKVNAMGWYRQAPGKGRELVAGIISGGSTNYADSVKGRFTISRDNAKNTVYLQMNSLRPEDTAVYYCSFVTTNSDYDLGRDYWGQGTLVTVSS
Reply text: 2.2
